Values were extracted from the NIST ThermoML archive (doi:10.1016/j.jct.2016.07.017).

# PROTOCOL_NOTES: activity coefficient (dimensionless); of the first substance listed, at infinite dilution; xn = mol fraction of the nth substance listed
# PROTOCOL_CONDITIONS: 358.15 K; 101.33 kPa; Liquid; Chromatography; x1 = 0
# label = TRUE if activity coefficient >= 2 else FALSE

compound="CCCOCCC [dipropyl ether] + CC[N+](C)(CC)CCOC.O=S(=O)([N-]S(=O)(=O)C(F)(F)F)C(F)(F)F" category=TRUE
compound="c1ccccc1 [benzene] + CC[N+](C)(CC)CCOC.O=S(=O)([N-]S(=O)(=O)C(F)(F)F)C(F)(F)F" category=FALSE
compound="CCC(C)(C)C [2,2-dimethylbutane] + CC[N+](C)(CC)CCOC.O=S(=O)([N-]S(=O)(=O)C(F)(F)F)C(F)(F)F" category=TRUE
compound="CCOC(C)(C)C [2-ethoxy-2-methylpropane] + CC[N+](C)(CC)CCOC.O=S(=O)([N-]S(=O)(=O)C(F)(F)F)C(F)(F)F" category=TRUE
compound="C1CCCCC1 [cyclohexane] + CC[N+](C)(CC)CCOC.O=S(=O)([N-]S(=O)(=O)C(F)(F)F)C(F)(F)F" category=TRUE
compound="COC(C)(C)C [2-methoxy-2-methylpropane] + CC[N+](C)(CC)CCOC.O=S(=O)([N-]S(=O)(=O)C(F)(F)F)C(F)(F)F" category=TRUE
compound="O [water] + CC[N+](C)(CC)CCOC.O=S(=O)([N-]S(=O)(=O)C(F)(F)F)C(F)(F)F" category=FALSE
compound="CO [methanol] + CC[N+](C)(CC)CCOC.O=S(=O)([N-]S(=O)(=O)C(F)(F)F)C(F)(F)F" category=FALSE
compound="Cc1ccc(C)cc1 [1,4-dimethylbenzene] + CC[N+](C)(CC)CCOC.O=S(=O)([N-]S(=O)(=O)C(F)(F)F)C(F)(F)F" category=TRUE
compound="C=CCCCCCCCC [1-decene] + CC[N+](C)(CC)CCOC.O=S(=O)([N-]S(=O)(=O)C(F)(F)F)C(F)(F)F" category=TRUE
compound="CCCCCCC [heptane] + CC[N+](C)(CC)CCOC.O=S(=O)([N-]S(=O)(=O)C(F)(F)F)C(F)(F)F" category=TRUE
compound="C1CCOC1 [tetrahydrofuran] + CC[N+](C)(CC)CCOC.O=S(=O)([N-]S(=O)(=O)C(F)(F)F)C(F)(F)F" category=FALSE
compound="CCC[N+](=O)[O-] [1-nitropropane] + CC[N+](C)(CC)CCOC.O=S(=O)([N-]S(=O)(=O)C(F)(F)F)C(F)(F)F" category=FALSE
